Experiment: Cellular viability qHTS for adrenocortical cancer (ACC) cell line SW-13 (AID 1963989);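 also: cells grown in serum-free medium with ITS supplement; % is scaled to controls: 0 for no effect and ±100 for the full control effect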
Details: SW-13 ACC cells viability, CellTiter-Glo, 48 h; stronger effect = lower value
Records with an inconclusive call do not appear.
metricName: activity (max response) (%)
Give bare numbers, in %.

Please report activity (max response) for every entry that follows.
1. CCN(CC)CCN
2. Cc1cc(Nc2nc(N[C@@H](C)c3ncc(F)cn3)ncc2Cl)n[nH]1
3. C[C@@H]1CCN(C(=O)N2CCCC2)C[C@@H]1N(C)c1ncnc2[nH]ccc12
4. Cc1ccc(S(=O)(=O)OCC(=O)Nc2ccc(C(=O)O)c(O)c2)cc1
5. CCOC(=O)C=C[C@H](C[C@@H]1CCNC1=O)NC(=O)[C@@H](CC(=O)[C@@H](NC(=O)c1cc(C)on1)C(C)C)Cc1ccc(F)cc1
6. COC(=O)c1cc(Cl)ccc1NS(=O)(=O)C(F)(F)F
7. CC1=C(C(=O)O)N2C(=O)[C@@H](NC(=O)[C@H](N)C3=CCC=CC3)[C@H]2SC1

**A:**
[6.69, -20.7, 11.2, 6.62, -3.62, -0.552, -13.1]
